Test: PhoP regulon inhibitors, Salmonella typhi PhoP promoter GFP reporter, confirmatory (AID 1850);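 also: 0% = induced wells with vehicle and 100% = uninduced wells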
Conditions: fluorescence, 4 h, at 50 µM, stronger effect = higher value
Screen size: about 310,000 compounds; about 1,000 (0.32%) were called active. Only a sample is shown. Measured potencies and affinities stand elsewhere.
measurementType: inhibition (%)
Enter your answer as a number in %; do not include the unit.

Please give the measured inhibition for this compound: `CCCCCOC(=O)Cn1c(=O)oc2ccccc21`
4.41

Cool, now `Cn1nc(CC(=O)Nc2ncc(Br)s2)c2ccccc2c1=O`
-7.27

Cool, now `COc1cc(CNCCc2ccccc2)ccc1OCc1ccc(Cl)nc1`
26.7

Cool, now CN1C(=S)SC(C)(C)C1(C)NO (centres undefined)
-6.1

Cool, now `[O-]/C(=C(\C(=S)Nc1ccc(SC(F)F)cc1)[n+]1ccccc1)c1cc(Cl)ccc1Cl`
-2.27

Cool, now `CCCCCCCCCCOC(=O)Cn1c(COc2ccccc2)[n+](C)c2ccccc21`
0.36

Cool, now `CCN(CC(=O)NCCN1CCOCC1)S(=O)(=O)c1ccc(F)cc1`
5.57

Cool, now `Oc1c(CN2CCOCC2)cc(-c2ccccc2)cc1CN1CCOCC1`
9.41

Cool, now `COc1ccc(CCC(=O)NNC(=O)Nc2cccc(Cl)c2)cc1`
-3.45

Cool, now `CCCCOC(=O)Cn1c(=N)n(CCC)c2ccccc21`
-6.14

Cool, now `O=C(Oc1c(CN2CCOCC2)cc(Cl)c2cccnc12)c1ccccc1`
9.08

Cool, now `CCOc1ccc(C(=O)Nc2nnc(C(C)C)s2)cc1OCC`
-1.68

Cool, now `Oc1c(CN2CCCCC2)cc(COCc2ccccc2)c2cccnc12`
-6.03

Cool, now `COc1ccccc1N1C(=O)c2cccnc2C1=O`
-1.48

Cool, now CC1Cc2ccccc2N1Cc1nc2scc(-c3cccs3)c2c(=O)[nH]1 (centres undefined)
0.2

Cool, now `Cc1ccsc1CN(C)C(=O)CCc1nnc(COc2ccccc2)o1`
-5.48

Cool, now `CCN(CC)CCN1C(=O)c2cccc3cc(N)cc(c23)C1=O`
6.76

Cool, now `Cc1ccc(O)c(C=Nc2ccc3[nH]ncc3c2)c1`
-7.82

Cool, now `Cc1nc2ccccn2c1C(=O)NNC(=S)Nc1ccc(Cl)cc1`
0.64

Cool, now `COc1cc(CNC2CCCC2)cc(Cl)c1OCc1ccc(F)cc1`
7.58

Cool, now `CC1(C)Cc2cccc(OCC(=O)N3CCN(c4cccc(C(F)(F)F)c4)CC3)c2O1`
7.47

Cool, now `CCn1c2ccccc2c2cc(NC(=O)CSc3nnc(-c4ccccc4OC)n3N)ccc21`
-0.4

Cool, now `CN(C)C(=O)Oc1cccc(OCc2n(C)c3ccccc3[n+]2C)c1`
-12.8

Cool, now `COc1ccc(CN2CCN(C)CC2)cc1OCc1ccccc1`
0.01

###

Assay: PhoP regulon inhibitors, Salmonella typhi PhoP promoter GFP reporter, confirmatory (AID 1850);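 also: 0% = induced wells with vehicle and 100% = uninduced wells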
Details: fluorescence, 4 h, at 50 µM, stronger effect = higher value
Among all 310,000 compounds or so, about 1,000 (0.32%) were called active. Not all results are given here. Entries with a potency or affinity are not part of this list.
measurementType: inhibition (%)
Enter your answer as a number in %; do not include the unit.

Please give the measured inhibition for this molecule: `O=C(CCS(=O)(=O)c1cccc2nonc12)N1CCCc2ccccc21`
4.05

Cool, now `Cc1cc(NC(=O)NCC(F)(F)F)no1`
-7.59

Cool, now `Cc1cc(C)cc(Nc2cc(=O)n(C3CCCCC3)c(=O)[nH]2)c1`
3.88

Cool, now `C#CCOCCOCCOCCNc1nc(N2CCN(C(=O)CCCCCCCCCCNC(=O)[C@@H](CCSC)n3cc(CCO)nn3)CC2)nc(N2CCN(C(=O)CCCCCCCCCCNC(=O)[C@H](CCC(=O)O)n3cc(CCCCCN)nn3)CC2)n1`
1.19

Cool, now O=C(CCN1C(=O)C2CC=C(Cl)CC2C1=O)N1CCCCC1 (stereo unspecified)
4.62

Cool, now `CC(=O)c1ccc(Nc2c3c(nc4ccccc24)CCCC3)cc1`
-0.46

Cool, now `CCCC(=O)N1CCN(c2ccc(NC(=O)c3cccs3)cc2)CC1`
-2.61

Cool, now `C/C(CC(=O)Nc1ccc2c(c1)OCO2)=N\NC(=O)OC(C)(C)C`
1.68

Cool, now `N/C(=N\OC(=O)c1ccccc1)c1cccnc1`
-1.82

Cool, now `O=C(c1nc2ccccn2c1CNCCn1ccc2ccccc21)N1CCOCC1`
-10.1

Cool, now `c1ccc(Nc2c3c(nc4ccccc24)CCC3)cc1`
-12.1

Cool, now `Cc1ccc2nc3c(c(Nc4ccccc4)c2c1)CCC3`
1.9

Cool, now CCC(C)NCCOc1cc(C)cc(C)c1C (stereo unspecified)
10.5

Cool, now `c1ccc2c(Nc3ccc4c(c3)OCCO4)c3c(nc2c1)CCC3`
19.5

Cool, now `CC(=O)N(C)c1ccc(NS(=O)(=O)c2cc(Cl)ccc2Cl)cc1`
-11.6

Cool, now `N/C(=N\OS(=O)(=O)c1ccc2ccccc2c1)c1ccncc1`
9.71

Cool, now `CCn1c(=O)n(CC)c2cc(NC(=O)c3ccccc3Cl)ccc21`
-4.48

Cool, now `Oc1ccc(Cl)cc1CNCc1ccc(Cl)cc1`
12.4

Cool, now CCOC(=O)CC1(NC(=O)C2CCC(=O)N(Cc3ccccc3F)C2)CCCCC1 (stereo unspecified)
-14.3

Cool, now `Oc1ccc(Cl)cc1CNn1cnnc1`
9.93

Cool, now `C#CCOCCOCCOCCNc1nc(N2CCN(C(=O)CCCCCCCCCCNC(=O)[C@@H](CCSC)n3cc(CCO)nn3)CC2)nc(N2CCN(C(=O)CCCCCCCCCCNC(=O)[C@H](CO)n3cc(CCCCCN)nn3)CC2)n1`
14.1

###

Experiment: PhoP regulon inhibitors, Salmonella typhi PhoP promoter GFP reporter, confirmatory (AID 1850);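 also: 0% = induced wells with vehicle and 100% = uninduced wells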
Settings: fluorescence, 4 h, at 50 µM, stronger effect = higher value
The campaign covered roughly 310,000 compounds. About 1,000 (0.32%) were called active. Not all results are given here. Entries with a potency or affinity are not part of this list.
measurementType: inhibition (%)
Enter your answer as a number in %; do not include the unit.

Please give the measured inhibition for this compound: COc1cc(C2/C(=C(\O)c3ccc4c(c3)CC(C)O4)C(=O)C(=O)N2CCN2CCOCC2)cc(OC)c1OC (stereo unspecified)
-7.62

Cool, now `CCCCC(=O)NNC(=S)NC(=O)c1ccc(C)cc1`
12.1

Cool, now `CSc1nc2ccc(Br)cc2[nH]1`
2.46

Cool, now `CCCCN1C(N)=NC[C@@H]1c1ccccc1`
-18.5

Cool, now COc1ccc(OC)c(C(O)C2CCCCN2)c1 (stereo unspecified)
-3.76

Cool, now `CCCCCC(=O)NNC(=S)NC(=O)c1ccc([N+](=O)[O-])cc1`
-13

Cool, now `CCCCCCCC(=O)NNC(=O)CCC(=O)O`
-4.06

Cool, now `O=C(N/C(=C/c1cccnc1)C(=O)N1CCOCC1)c1ccccc1Cl`
1.54

Cool, now `Cc1cc(C(=O)N/N=C/c2ccc([N+](=O)[O-])s2)c2ccccc2n1`
4.3

Cool, now `O=C(O)c1cc(C(F)(F)F)nc2c(C(F)(F)F)cccc12`
-2.04

Cool, now `O=C(COC(=O)/C=C/c1ccc([N+](=O)[O-])cc1)NCc1ccccc1`
-8.81

Cool, now O=C(N/N=C/c1cc([N+](=O)[O-])ccc1O)C1C2CCCCC21 (stereo unspecified)
-4.14

Cool, now `O=C(N/N=C/c1ccc([N+](=O)[O-])s1)c1ccccc1`
6.9

Cool, now Cc1ccc(NC(C)C(=O)N/N=C/c2ccc([N+](=O)[O-])s2)cc1 (stereo unspecified)
-1.13

Cool, now OC(c1cc(-c2ccc(C(F)(F)F)cc2)nc(C(F)(F)F)c1)C1CCCCN1 (stereo unspecified)
-0.73

Cool, now `Cc1ccsc1/C=C(\C#N)C(=O)NCc1cccnc1`
-18.9

Cool, now `CCCCc1n(CC(=O)c2ccc(Cl)cc2)c2ccccc2[n+]1C`
0.37

Cool, now `CCCCC(=O)NC(=S)NNC(=O)CC#N`
15.9

Cool, now `Cc1ccc(NC(=O)CCC(=O)N/N=C/c2cc([N+](=O)[O-])ccc2O)cc1`
-3.42

Cool, now `O=S(=O)(c1ccc(NC(=S)N/N=C/c2ccc(O)c(O)c2)cc1)N1CCOCC1`
9.73

Cool, now `Cc1cc(C)c(NC(=O)CSc2nnc(CNC(=O)c3c(F)cccc3Cl)o2)c(C)c1`
1.72

Cool, now `CC(C)(C)NC(=S)NNC(=O)[C@H]1C[C@@H]1c1ccccc1`
-2.2

Cool, now `O=C(N/N=C/c1cc([N+](=O)[O-])ccc1O)C1CCCCC1`
-0.28

Cool, now `COc1cccc(C(=O)Nc2nnc(-c3cccs3)o2)c1`
17.3

Cool, now `CN(C)C1=NC[C@H](Cc2ccccc2)N1CCCC1CCCCC1`
4.81

Cool, now Cc1ccc(/C=N/NC(=O)C(O)c2ccccc2)o1 (stereo unspecified)
1.91

Cool, now `Clc1cc2nc(-c3cccnc3Cl)[nH]c2cc1Cl`
-3.66

Cool, now `Brc1ccc(-c2nnc(-c3ccco3)o2)cc1`
7.53

Cool, now `CN(C)C(=O)Oc1ccc(OCc2n(C)c3ccccc3[n+]2C)cc1`
-10.3

Cool, now `CC(=O)Oc1ccc(C(=O)Nc2cc(C)on2)cc1`
3.46

Cool, now `CCCCC(=O)NC(=S)NNC(=O)CCc1ccccc1`
-4.48

Cool, now `O=C(Nc1nnc(-c2cccs2)o1)c1ccco1`
9.01

Cool, now `CCCCNC(=O)CCn1c(=O)c2ccccc2n(Cc2ccc(Cl)cc2)c1=O`
5.58

Cool, now `NCCCC[C@H]1CN=C(N)N1CCCCC1CCCCC1`
7.18

Cool, now `N#CCCN(C(=O)COC(=O)c1ccc(CNS(=O)(=O)c2ccc(F)c(Cl)c2)cc1)c1ccc(F)cc1`
-2.96

Cool, now COc1cccc(C2c3[nH]c4ccccc4c3C[C@H]3C(=O)N(c4ccccc4C(=O)N4CCC(C(=O)O)CC4)C(=O)N23)c1 (stereo partly specified)
-4.46

Cool, now `COc1cccc(C(=O)Nn2cnnc2)c1`
4.98

Cool, now `O=C(CSc1nccc(=O)[nH]1)N1CCOCC1`
-10

Cool, now `CC(C)N1CCc2c(sc(NC(=O)c3ccc([N+](=O)[O-])o3)c2C(N)=O)C1`
-4.77

Cool, now OC(c1cc(C(F)(F)F)nc2c(Cl)cc(Cl)cc12)C1CCCCN1 (stereo unspecified)
0.54

Cool, now `NC1=NC[C@H](c2ccccc2)N1CC1CCCCC1`
-20.2

Cool, now `CCCCN1C(N)=NC[C@H]1Cc1ccc(O)cc1`
1.82

Cool, now `COc1ccc(CCNC(=O)CCCCC(=O)NCCc2ccc(OC)cc2)cc1`
-3.5

Cool, now `Cc1ccccc1NC(=O)CCC(=O)N/N=C/c1cc([N+](=O)[O-])ccc1O`
-5.84

Cool, now `Cc1sc(NC(=O)C2=COCCO2)nc1-c1ccc(F)cc1`
-5.87

Cool, now `O=C(N/N=C/c1ccc(Br)s1)c1ccccc1[N+](=O)[O-]`
-8.63
